Target: UniProt:P15538
Sequence (P15538 whole entry): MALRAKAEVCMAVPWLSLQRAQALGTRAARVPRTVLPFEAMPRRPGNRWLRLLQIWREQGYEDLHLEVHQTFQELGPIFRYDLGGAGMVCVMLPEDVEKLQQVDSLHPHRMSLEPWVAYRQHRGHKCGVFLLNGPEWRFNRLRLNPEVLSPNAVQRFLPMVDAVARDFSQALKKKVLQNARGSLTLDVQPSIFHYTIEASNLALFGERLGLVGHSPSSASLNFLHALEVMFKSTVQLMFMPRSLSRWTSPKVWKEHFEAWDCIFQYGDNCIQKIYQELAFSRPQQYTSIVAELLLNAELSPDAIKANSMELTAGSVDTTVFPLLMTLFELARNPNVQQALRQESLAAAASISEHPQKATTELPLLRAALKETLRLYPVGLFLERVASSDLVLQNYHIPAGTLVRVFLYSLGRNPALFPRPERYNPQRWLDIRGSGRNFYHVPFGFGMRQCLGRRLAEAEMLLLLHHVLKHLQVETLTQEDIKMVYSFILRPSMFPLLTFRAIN
Test: Inhibition of human CYP11B1-8C7 expressed in Chinese hamster V79 cells using 11-deoxycortisol as substrate preincubated for 1 hr followed by substrate addition measured for 3 hrs by HTRF assay
Assay type: ADME, cell-based
pIC50: −log10 of the molar value.
Measured metric: pIC50

Solved entries (count: 2):
INSERT INTO results (chemical_structure, experimental_system, measured_metric, value_measured) VALUES
  ('CC(C)(O)c1cncc(-n2ncc3ccc(C(F)(F)F)cc32)c1', 'UniProt:P15538', 'pIC50', 5.08),
  ('Cc1cccc2c1cnn2-c1cncc(C(C)(C)O)c1', 'UniProt:P15538', 'pIC50', 6.68);

A. Fc1cncc(-n2ncc3cc(F)ccc32)c1
B. Fc1ccc2c(cnn2-c2cncc(C(F)(F)F)c2)c1
Prompt: Look at A and B . Which one has the lower recorded pIC50 number? Which one? Tell me its label.
Response: A
(A: 5.08, B: 5.77)

A. Fc1ccc2c(cnn2-c2cccnc2)c1
B. Cc1ccc2c(cnn2-c2cncc(C(C)(C)O)c2)c1
Prompt: Identify the entry with the smaller pIC50: A or B . Return value: the label identifying the chosen record.
Response: A
(A: 5.08, B: 6.04)
